- System: c-Src
- experiment description: phosphorylation enrichment, bacterial display (enrichment ratio); higher = better substrate or ligand; peptides without Tyr show the background
recorded endpoint: phosphorylation enrichment
Keep the answer to the number alone.

Worked cases, phosphorylation enrichment given:
1. KLPDAYERLIL [G6PD_Y437]
0.542
2. RRIFSYRGHLW [VHL_Y112_H110Y_YF]
0.905
3. GLAELYEFKKK [CKAP5_Y1854_YF]
0.665

Shifting focus to the sequence that follows.
// field: phosphorylation enrichment; key: LENSTYQYICV [CRB1_Y760_R764C] ; value = 3.5

====

- Tested on: Fer (mouse)
- experiment description: phosphorylation enrichment, bacterial display (enrichment ratio); higher = better substrate or ligand; peptides without Tyr show the background
Each entry falls in a class defined on phosphorylation enrichment; the bands are bottom end (below 0.5), midrange (0.5 to below 0.6), top end (0.6 or more)

Worked examples follow.
1. LFVDVYGPSVP [NUBPL_Y109_D105Y_YF]
top end
2. QYNMQYSSSAA [ERBB2IP_Y981_I979M]
top end

# input State the band of EVVGRYSVHYA [MLH1_Y183_N187Y]
# output bottom end

# input State the band of QRRNVYFFSFL [PTEN_Y176_Y174N_YF]
# output bottom end

# input State the band of FSMGCYEIFLG [HMGCL_Y198_S201Y_YF]
# output top end

# input State the band of PGIRMYQVQYN [LRFN1_Y454]
# output bottom end

# input State the band of RRAKGYPINLF [ITGB2_Y125_D128N_YF]
# output bottom end

====

- assayed target: SHP2-C SH2;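 also: peptide library displayed on the E. coli surface as eCPX fusions, selected cells deep-sequenced, score is each peptide's frequency after selection divided by its frequency in the input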
- experiment description: SH2 binding enrichment of the phosphorylated peptide, bacterial display (enrichment ratio); higher = better substrate or ligand; peptides without Tyr show the background
Outcome label depends on SH2 binding enrichment relative to 0.6: at/above gives yes, below gives no.

Worked examples follow.
1. EIELAYRRRPP [GRIN2B_Y1109]
no
2. DLAHKYHGGGG [HBB_Y146_A141D]
no
3. LSAPCYLNRIS [HEXA_Y421_W420C]
yes
4. HKLSYYEYDFE [BTK_Y40]
yes
5. GGKYSYLKVGH [GRM3_Y480]
yes
6. YFCRWYRNQKS [EREG_Y144_R147Q]
no
7. RELGKYGLQAY [ALDH2_Y497_E496K]
no
8. GRTGHYLCNAC [GATA1_Y223_D218G]
yes

# input SH2 binding enrichment >= 0.6 for ISRLKYPVSQQ [BTK_Y375] ?
# output yes

# input SH2 binding enrichment >= 0.6 for `PKDSAYVTWEP` ?
# output yes

# input SH2 binding enrichment >= 0.6 for RFLERYIFNPE [HLA-DPB1_Y57_R61P_YF] ?
# output yes

# input SH2 binding enrichment >= 0.6 for TFGVVYKARNK [CDK2_Y19_YF] ?
# output yes

# input SH2 binding enrichment >= 0.6 for SSTASYFKAPG [RFX2_Y108_E110K] ?
# output yes

# input SH2 binding enrichment >= 0.6 for AEYGLYGAMVR [VSX2_Y222] ?
# output yes

# input SH2 binding enrichment >= 0.6 for AELVQYFMEHH [PTPN11_Y80_YF] ?
# output yes

====

- assayed target: Fyn (UniProt P06241)
- Sequence (P06241 whole entry, looked up): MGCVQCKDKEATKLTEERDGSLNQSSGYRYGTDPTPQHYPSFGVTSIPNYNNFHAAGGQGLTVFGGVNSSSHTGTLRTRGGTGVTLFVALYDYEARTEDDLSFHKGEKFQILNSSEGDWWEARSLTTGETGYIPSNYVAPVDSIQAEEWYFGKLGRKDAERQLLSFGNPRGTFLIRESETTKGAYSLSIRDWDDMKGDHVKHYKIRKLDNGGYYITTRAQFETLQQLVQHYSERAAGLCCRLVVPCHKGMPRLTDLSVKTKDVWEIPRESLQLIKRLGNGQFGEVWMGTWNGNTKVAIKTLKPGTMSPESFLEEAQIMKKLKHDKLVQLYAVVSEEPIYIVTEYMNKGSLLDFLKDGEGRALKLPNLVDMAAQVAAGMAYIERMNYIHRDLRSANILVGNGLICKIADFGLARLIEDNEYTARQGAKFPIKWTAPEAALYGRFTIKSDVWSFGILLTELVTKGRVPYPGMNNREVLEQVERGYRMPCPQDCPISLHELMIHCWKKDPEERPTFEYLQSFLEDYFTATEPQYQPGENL
- experiment description: phosphorylation enrichment, bacterial display (enrichment ratio); higher = better substrate or ligand; peptides without Tyr show the background
Measured phosphorylation enrichment values are reported for all entries that follow.
Keep the answer to the number alone.

// field: phosphorylation enrichment; key: RSSNTYTLMDV [ALCAM_Y298_T301M] ; value = 1.55

// field: phosphorylation enrichment; key: GDYLSYREFHL [ERBIN_Y1107_S1112L] ; value = 3.1

// field: phosphorylation enrichment; key: RGVVMYTSKDR [ZG16B_Y136_M133V] ; value = 0.665

// field: phosphorylation enrichment; key: AELVQYFMEHH [PTPN11_Y80_YF] ; value = 0.623

// field: phosphorylation enrichment; key: NGQALYAACQT [XDH_Y1092_V1091L] ; value = 3.2
